- system: T1, human CD19 protein with a biotinylated AviTag (Acrobiosystems) (human, UniProt P15391 20-291, biotinylated AviTag)
- T1 construct: Captured on streptavidin-coated microplate wells; also called biotinylated-AviTag-CD19; hCD19; not shown: AviTag
- T1 sequence (looked up): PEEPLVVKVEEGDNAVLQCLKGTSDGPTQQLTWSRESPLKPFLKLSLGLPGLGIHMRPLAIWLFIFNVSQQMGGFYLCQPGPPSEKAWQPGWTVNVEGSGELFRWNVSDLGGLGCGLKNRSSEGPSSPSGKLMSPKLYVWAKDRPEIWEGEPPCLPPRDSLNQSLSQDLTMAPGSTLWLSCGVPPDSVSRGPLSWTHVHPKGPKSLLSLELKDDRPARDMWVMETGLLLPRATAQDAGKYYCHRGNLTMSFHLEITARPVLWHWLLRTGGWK
- method.summary: phage ELISA, biotinylated AviTag CD19 on streptavidin wells; signal ratio to FMC63 standard
result.type: ELISA hCD19 (ratio FMC63)

For each of the binders below, state ELISA hCD19 (ratio FMC63).
1. scFv 16 (scFv, Canine scFv (VL-linker-VH); also called P3-33; P4-01) scFv: QSVLTQPTSVSGSLGQRVTISCTGSSSNVGYGNYVGWYQQLPGTGPRTLIYGSHYRPSGVPDRFSGSSSGSSATLTISGLQAEDEADYYCSSYDSTLSGYVFGSGTQLTILGGGSSRSSSSGGGGSGGGGEVQLVESGGDLVKPGGSLRLSCVGSGFTLSSYWMSWVRQAPGKGLQWIAEISGSGNTIYYGDAVKGRFTISRDNAKNTLYLQMNSLRDEDTAVYYCATEYYWNIDNWGQGTLVTVSSESPFPPNLTSGQAGQHHHHHHGAYPYDVPDYAS
2. scFv 5 (scFv, Canine scFv (VL-linker-VH); also called scFv_05; P3-14) scFv: QPVLTQPPSVSGSLGQRVTISCSGSTNTIGVVGANWYQQLPGKSPKLLVYSDGVRPSGVPDRFSGSRSANSDTLTITGLQAEDEADYYCQSFDSTHNAIVFGGGTHLTVLGGGSSRSSSSGGGGSGGGGEVQLVETGGDLVKPAGSLRLSCAASGFPFSGYSMTWVRQAPEKGLQLVAGINSDGSHTYYTDDVKGRFTISRDNTKYILYLQMNSLRAEDTAMYYCGSHSWGNFHYWGQGTLVTVSSESPSPPNLTSGQAGQHHHHHHGAYPYDVPDYAS
3. scFv 15 (scFv, Canine scFv (VL-linker-VH); also called P3-59A) scFv: SYELTQPPSVSAALGQGVTISCIGSDTNIGNHYDVQWYQQLPGKSPRTIIYGNSDRPSGVPGRFSGSKSGNTATLTITGIQAEDEADYHCQSYDDDLDGHIVFGGGTHLTVLGGGSSRSSSSGGGGSGGGGEVQLVQSGGDLVKPGGSLRLSCVASGFTFNKYHMSWVRQAPGKGLQWVGKITSDGSATGYADAVKGRFTISRDNAKNTFYLQMDSLRAEDTAMYYCARDQSSWGTGNFDYWGQGTLVTVSSASTTAPSVTSGQAGQHHHHHHGAYPYDVPDYAS
4. scFv 34 (scFv, Canine scFv (VL-linker-VH); also called P3-44) scFv: SYELTQPPSVSAALGQRVTISCTGTNTNIGSGYSVQWYQQLPGESPKPIIYGSSNRPSGVPARFSGSKSGSTGTLTITGIQAEDEADYHCQSYDDSLDGHAVFGGGTQLTILGGGSSRSSSSGGGGSGGGGEVQLVESGGDLVKPGGSLRLSCVASGLTFSDNYMSWIRQVPGKGLQWVSRISTDGRGTSYADAVKGRFTISRDNAKNTLYLQMNSLRDEDTAVYYCARRSGIWGFDYWGQGTLVTVSSESPSPPNLTSGQAGQHHHHHHGAYPYDVPDYAS
5. scFv 42 (scFv, Canine scFv (VL-linker-VH); also called P3-13) scFv: QSVLTQPTSVSGSLGQRVTISCSGSTNDIGIIGAAWYQQLPGKAPKLLLYSNKNRPSGVPDRFSGSNSGISATLTITGLQAEDEADYYCQSVDPALHTYVFGSGTQLTILGGGSSRSSSSGGGGSGGGGEVQLVEIGGDLVKPEGSLRLSCVVSGFTFSGYDMNWVRQAPGKGLQWVAYISSDGRRTVYTDAVKGRFTISRDNAKNTLYLQMNSLKSEDTAVYYCVKGGWLDFWGQGTLVTVSSESPSPPNLTSGQAGQHHHHHHGAYPYDVPDYAS
6. scFv 41 (scFv, Canine scFv (VL-linker-VH); also called P3-08A; P3-08B) scFv: QPVLTQPPSVSVSLGQTATISCSGESLSKYYAQWFQQKAGQAPVLVIYKDTERPSGIPDRFSGSSSGNTHTLTISGARAEDEADYYCESAVSTETVVFGGGTHLTVLGGGSSRSSSSGGGGSGGGGEVQLVETGGDLVMPAGSLRLSCVASGFTFSSSVMSWVRQAPGKGLEWVAGINGGGSFAAYGDAVKGRFTISRDNAKNTLYLQMNSLRAEDTAMYYCVGGGYMDFWGPGTSLFVSSESPSPPNLTSGQAGQHHHHHHGAYPYDVPDYAS

Out:
0.41 ratio to FMC63
0.48 ratio to FMC63
0.99 ratio to FMC63
0.73 ratio to FMC63
0.14 ratio to FMC63
0.47 ratio to FMC63
